Origin of values: the METLIN SMRT retention time set (Domingo-Almenara et al. 2019)

assay: gradient 5% acetonitrile 3 min, to 50% in 2 min, to 85% in 15 min, held 3 min, 100 µL/min; conditions: column: Zorbax Extend-C18 2.1 x 50 mm; eluents: water / acetonitrile, 0.1% formic acid
Record fulfilled whenever RP-LC retention time is at 800 s or higher; record not fulfilled when lower.

Solved entries (count: 3):
{"MOLECULE": "Cc1ccc(C2=NC3(CCN(C(=O)c4n[nH]c5c4CCCC5)CC3)ON2)cc1", "CLASS LABEL": "not fulfilled"}
{"MOLECULE": "O=C(Cn1c(C(F)(F)F)nc2cc3c(cc21)OCCO3)NCc1ccc(Cl)cc1", "CLASS LABEL": "fulfilled"}
{"MOLECULE": "CN1CCN(C(CNC(=O)c2ccc(Cl)cc2)c2ccc(N(C)C)cc2)CC1 (centres undefined)", "CLASS LABEL": "not fulfilled"}

[in] Is reported RP-LC retention time greater than or equal to 800 s here: O=C(NCc1ccc(F)cc1)N1CCN(CCn2c(C(F)(F)F)nc3cccnc32)CC1
[out] not fulfilled

[in] Check this molecule for RP-LC retention time at or above 800 s: COc1ccc(CNS(=O)(=O)c2cc(-c3[nH]ncc3C(=O)N3CCCC3)oc2C)cc1
[out] not fulfilled

[in] Can CCOc1nccnc1N1CCC(NC(=O)c2ccc(C#N)cc2)C1 (centres undefined) be said to have RP-LC retention time at or above 800 s?
[out] not fulfilled

[in] Does the molecule Cc1nnc(C2CC3(CCN(CCc4ccccc4)CC3)CN2CCc2ccccc2)o1 (centres undefined) have recorded RP-LC retention time that is 800 s or more?
[out] not fulfilled

[in] Check this molecule for RP-LC retention time at or above 800 s: COc1ccc2cccc(NC(=O)c3csc(C)n3)c2n1
[out] fulfilled

[in] Record Cc1ccccc1CNC(=O)C1(C)CCCN(C(=O)Nc2cccc(F)c2)C1 (centres undefined) ; criterion: RP-LC retention time no lower than 800 s. Met?
[out] fulfilled

[in] Determine whether measured RP-LC retention time meets or exceeds 800 s for Cc1c(Cl)cccc1S(=O)(=O)N1CCCN(c2ccc(=O)n(-c3ccccc3)n2)CC1
[out] fulfilled
